target: Dopamine D2 receptor (hD2L) (Homo sapiens, UniProt P14416); test: Dopamine D2 Receptor Binding Assay ([3H]spiperone, CHO-hD2L membranes); settings: [3H]spiperone 0.4 nM, membrane preparation from CHO-hD2L cells
Sequence (P14416 whole entry): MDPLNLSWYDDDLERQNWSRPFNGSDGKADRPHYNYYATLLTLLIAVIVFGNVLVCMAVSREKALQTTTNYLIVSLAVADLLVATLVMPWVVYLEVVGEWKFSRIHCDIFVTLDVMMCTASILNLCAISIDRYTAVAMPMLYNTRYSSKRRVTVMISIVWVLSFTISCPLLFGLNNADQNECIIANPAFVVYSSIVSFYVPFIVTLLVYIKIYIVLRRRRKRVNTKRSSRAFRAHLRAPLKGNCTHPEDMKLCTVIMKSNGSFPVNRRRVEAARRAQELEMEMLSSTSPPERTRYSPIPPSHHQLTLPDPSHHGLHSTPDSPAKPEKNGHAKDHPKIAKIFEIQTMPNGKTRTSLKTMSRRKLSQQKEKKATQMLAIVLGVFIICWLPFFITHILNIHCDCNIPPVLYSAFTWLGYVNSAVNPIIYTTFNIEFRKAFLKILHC
pKi: −log10 of the molar value.
Experimental Readout: pKi

[[record]]
compound = "O=C1NCCc2ccc(OCCCCN3CCN(c4cccc5ccc(F)cc45)CC3)cc2N1 [Example 38]"
target_under_test = "Dopamine D2 receptor (hD2L) (Homo sapiens, UniProt P14416)"
readout_value = 8.65


[P] CC(C)c1cccc(N2CCN(CCCCOc3ccc4c(c3)NC(=O)NCC4)CC2)n1 [Example 34]
[Q] O=C1NCCc2ccc(OCCCCN3CCN(c4cccc5c4CCC5)CC3)nc2N1 [Example 13]
Prompt: Kindly identify which of P and Q has the larger recorded pKi value. Identify your pick by its label.
Response: Q
(Q: 9.23, P: 8.57)

###

Target: Dopamine D2 receptor (hD2L) (Homo sapiens, UniProt P14416)
Assay: Dopamine D2 Receptor Binding Assay ([3H]spiperone, CHO-hD2L membranes)
Details: [3H]spiperone 0.4 nM, membrane preparation from CHO-hD2L cells
Excerpt: The ability of the novel compounds of this invention to bind to the dopamine D2 receptor can be determined using conventional radioligand receptor binding assays. All receptors can be heterologously expressed in cell lines and binding assays can be conducted in membrane preparations from the cell lines using procedures outlined below. IC50 concentrations can be determined by nonlinear regression of concentration-dependent reduction in specific binding. […]
Experimental Readout: Ki (nM)

Observe how each entry below is paired with its result.
[[record]]
structure_smiles_string = "O=C1NCCc2ccc(OCCCCN3CCN(c4cccc5ccccc45)CC3)cc2N1"
experimental_readout = "Ki"
readout_value = 3.45

[[record]]
structure_smiles_string = "N#Cc1ccc2cccc(N3CCN(CCCCOc4ccc5c(n4)NC(=O)CCC5)CC3)c2c1"
experimental_readout = "Ki"
readout_value = 2.79

[[record]]
structure_smiles_string = "O=C1NCCc2ccc(OCCCCN3CCN(c4cccc5c4COCC5)CC3)cc2N1"
experimental_readout = "Ki"
readout_value = 6.14


[P] COc1ccc2cccc(N3CCN(CCCOc4ccc5c(c4)NC(=O)NCC5)CC3)c2n1
[Q] CN1C(=O)CCc2cccc(N3CCN(CCCCOc4ccc5c(n4)NC(=O)CCC5)CC3)c21
Prompt: Kindly identify which of P and Q has the larger recorded Ki value. Output the label that corresponds to your choice.
Response: Q
(Q: 18.9 nM, P: 1.04 nM)

###

Biological target: Dopamine D2 receptor (hD2L) (Homo sapiens)
Test: Dopamine D2 Receptor Binding Assay ([3H]spiperone, CHO-hD2L membranes)
Settings: [3H]spiperone 0.4 nM, membrane preparation from CHO-hD2L cells
Excerpt: The ability of the novel compounds of this invention to bind to the dopamine D2 receptor can be determined using conventional radioligand receptor binding assays. All receptors can be heterologously expressed in cell lines and binding assays can be conducted in membrane preparations from the cell lines using procedures outlined below. IC50 concentrations can be determined by nonlinear regression of concentration-dependent reduction in specific binding. […]
Experimental Readout: Ki (nM)

[[record]]
structure_smiles_string = "O=C1NCCc2ccc(CCCCCN3CCN(c4cccc(Cl)c4Cl)CC3)cc2N1"
experimental_readout = "Ki"
readout_value = 4.47

[[record]]
structure_smiles_string = "CC1(C)Cc2ccc(OCCCN3CCN(c4cccc5ccccc45)CC3)cc2NC(=O)N1"
experimental_readout = "Ki"
readout_value = 9.38

[[record]]
structure_smiles_string = "O=C1CCCc2ccc(OCCCCN3CCN(c4cccc5c4CCCC5)CC3)nc2N1"
experimental_readout = "Ki"
readout_value = 2.45

[[record]]
structure_smiles_string = "Cc1cc(N2CCN(CCCCOc3ccc4c(c3)NC(=O)NCC4)CC2)c(Cl)cc1F"
experimental_readout = "Ki"
readout_value = 6

[[record]]
structure_smiles_string = "O=C1NCCc2ccc(OCCCCN3CCN(c4cccc5c4OCCC5)CC3)nc2N1"
experimental_readout = "Ki"
readout_value = 1


[A] O=C1NCCc2ccc(OCCCCN3CCN(c4cccc5c4CCCC5)CC3)nc2N1
[B] O=C1NCCc2ccc(OCCCN3CCN(c4cccc5ccccc45)CC3)cc2N1
Prompt: I would appreciate it if you could say which entry, A or B , has the lower Ki value. When you have decided, please share the label of that item.
Response: A

[P] O=C1NCCc2ccc(OCCCCN3CCN(c4cccc5ccccc45)CC3)nc2N1
[Q] O=C1NCCc2ccc(OCCCCN3CCN(c4cccc5cccc(F)c45)CC3)cc2N1
Prompt: Please indicate which item has the smaller measured Ki: P versus Q Please respond with the label that marks your chosen entry.
Response: P

[a] O=C1NCCc2ccc(OCCCCN3CCN(c4cccc5c4OCC5)CC3)nc2N1
[b] O=C1NCCc2ccc(OCCCCN3CCN(c4cccc5ccc(F)cc45)CC3)nc2N1
Prompt: For the two items a and b , which reports the higher Ki value? Could you answer with the label of the item you picked?
Response: b
(b: 1.79 nM, a: 0.4 nM)

[1] O=C1CCCc2ccc(OCCCCN3CCN(c4cccc5c4OCCCO5)CC3)nc2N1
[2] O=C1NCCc2ccc(OCCCCN3CCN(c4ccc(F)cc4Cl)CC3)cc2N1
Prompt: Sort 1 and 2 by Ki descending and give the first. Reply with the label of the item you choose.
Response: 2
(2: 3 nM, 1: 2 nM)
